All figures here come from patent US12521390B2.

# measurement notes: Chemical stability (related substances) of BMS-986165:HPMCAS-H SDDs on storage
# Assay type: physicochemical
# study conditions: API standard, no storage condition
measurement label: Total impurities >LOQ (%)
A number alone suffices; assume %.

q: Please look up its Total impurities >LOQ: [2H]C([2H])([2H])NC(=O)c1nnc(NC(=O)C2CC2)cc1Nc1cccc(-c2ncn(C)n2)c1OC [BMS-986165]
a: 0.52
